experiment.summary: clinical
measurement.conditions: human, plasma, intravenous, 1 mg/m2
result.type: half-life (h)

- compound: "CC(C)C[C@H](NC(=O)[C@H](Cc1ccccc1)NC(=O)c1cnccn1)B(O)O [bortezomib]"
  result.type: "half-life"
  value.observed: 11.3

###

experiment.summary: clinical
measurement.conditions: human, plasma, intravenous, 1.5 mg/m2

- compound: "CC(C)C[C@H](NC(=O)[C@H](Cc1ccccc1)NC(=O)c1cnccn1)B(O)O [bortezomib]"
  half-life: "6.4 h"
